tested on: hepatocytes; assay: Hepatocyte stability assay, mouse; type: in vitro ADME; details: 10 μM compound, 0.5×10^6 cells/mL, 60 min
Outcome measure: CIint (μL min^−1 10^−6 cells)

Record excerpt, results attached:
Compound	CIint [μL min^−1 10^−6 cells]
C=C(CC(=O)OCCCCCCCC)C(=O)O [4-octyl itaconate, reference compound]	351
C=C(CC(=O)OC1(c2ccc(C(F)(F)F)cc2)CCC1)C(=O)OC1(CC(=O)O)COC1	82
C=C(CC(=O)OC1(c2ccc(C(F)(F)F)cc2)CCC1)C(=O)OCCC(=O)O	128

(a) C=C(CC(=O)OC1(c2ccc(C(F)(F)F)cc2)COC1)C(=O)OCCC(=O)O
(b) C=C(CC(=O)OC1(c2ccc(C(F)(F)F)c(Cl)c2)CCC1)C(=O)OCC(=O)O
Between the two listed entries a and b , which has its CIint at the higher number? Lab log: write the label of the selected item as the result.
b

---

test: Hepatocyte stability assay, mouse; type: in vitro ADME; conditions: cryopreserved hepatocytes, 10 μM compound, 0.5×10^6 cells/mL, 60 min, read-out: T½
Outcome measure: half-life at 10 μM (min)

Record excerpt, results attached:
Smiles record	Unit descriptor	half-life at 10 μM
C=C(CC(=O)OC1(c2ccc(C(F)(F)F)cc2)COC1)C(=O)OCCC(=O)O	min	41
C=C(CC(=O)OC1(c2ccc(SC(F)(F)F)cc2)CCC1)C(=O)OCC(=O)O	min	23
C=C(CC(=O)OC1(c2ccc(C(F)(F)F)c(Cl)c2)CCC1)C(=O)OCC(=O)O	min	25
C=C(CC(=O)OC1(c2ccc(C(F)(F)F)cc2)CCC1)C(=O)OCC(=O)O	min	38
C=C(CC(=O)OC1(c2ccc(C)c(Cl)c2)CCC1)C(=O)OCC(=O)O	min	26

(A) C=C(CC(=O)OC1(c2ccc(Cl)cc2Cl)CCC1)C(=O)OCC(=O)O
(B) C=C(CC(=O)OC1(c2ccc(C(F)(F)F)cc2)CCC1)C(=O)OCCC(=O)O
Between the two listed entries A and B , which has its half-life at 10 μM at the higher number? Lab log: write the label of the selected item as the result.
B

(I) C=C(CC(=O)OC1(c2cc(F)c(C(F)(F)F)c(F)c2)CCC1)C(=O)OCC(=O)O
(II) C=C(CC(=O)OC1(c2c(Cl)cccc2Cl)CCC1)C(=O)OCC(=O)O
Which value of half-life at 10 μM is smaller, the one for I or the one for II ? Lab log: write the label of the selected item as the result.
II

---

assay: Hepatocyte stability assay, mouse; type: in vitro ADME; details: cryopreserved hepatocytes, 10 μM compound, 0.5×10^6 cells/mL, 60 min, read-out: T½
Outcome measure: half-life at 10 μM (min)

Molecule	half-life at 10 μM (min)
C=C(CC(=O)OC1(c2ccc(OC(F)(F)F)cc2)CCC1)C(=O)OCC(=O)O [Example 9]	29

(P) C=C(CC(=O)OC1(c2cc(Cl)c(OC)c(Cl)c2)CCC1)C(=O)OCC(=O)O [Example 18]
(Q) C=C(CC(=O)OC1(c2ccc(C(F)(F)F)cc2)CC1)C(=O)OCC(=O)O [Example 30]
(R) C=C(CC(=O)OC1(c2ccc(C(F)(F)F)cc2)CCC1)C(=O)OC1(CC(=O)O)COC1 [Example 33]
# sort list by recorded half-life at 10 μM, greatest to least // respond by listing labels in the order requested
Q, P, R
